# System Under Test: HRgpA-6H (Porphyromonas gingivalis) (UniProt P28784)
# Measurement Protocol: ELISA, Fab FASEBA supernatant on coated HRgpA-6H
// Ratio OD(Variant)/OD(WT) lookup, one value per entry
Measured Attribute: Ratio OD(Variant)/OD(WT)

>>> observed_measurement("parental mouse (KB001) Fab FASEBA, VL variant S57W (Fab, V domains shown) VH: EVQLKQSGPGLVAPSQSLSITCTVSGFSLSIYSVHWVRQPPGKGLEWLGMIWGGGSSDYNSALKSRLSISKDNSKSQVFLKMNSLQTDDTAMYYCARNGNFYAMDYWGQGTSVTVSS VL: QIVLTQSPAIMSASLGERVTMTCTASSSVSSSFLHWYQQKPGSSPQLWIYSTSNLAWGVPARFSGSGSGTSYSLTISSMEAEDAATYYCHQYHHSPYIYTFGGGTKLEIK")
"0.961 ratio to WT"
>>> observed_measurement("parental mouse (KB001) Fab FASEBA, VL variant Y97I (Fab, V domains shown) VH: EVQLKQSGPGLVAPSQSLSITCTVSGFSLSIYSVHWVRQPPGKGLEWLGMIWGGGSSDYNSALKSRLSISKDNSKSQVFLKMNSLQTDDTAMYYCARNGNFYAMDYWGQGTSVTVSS VL: QIVLTQSPAIMSASLGERVTMTCTASSSVSSSFLHWYQQKPGSSPQLWIYSTSNLASGVPARFSGSGSGTSYSLTISSMEAEDAATYYCHQYHHSPIIYTFGGGTKLEIK")
"0.845 ratio to WT"
>>> observed_measurement("parental mouse (KB001) Fab FASEBA, VL variant Y97K (Fab, V domains shown) VH: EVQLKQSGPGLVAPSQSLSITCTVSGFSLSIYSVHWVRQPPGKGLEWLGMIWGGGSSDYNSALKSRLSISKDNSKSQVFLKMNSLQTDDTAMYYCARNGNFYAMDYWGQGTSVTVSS VL: QIVLTQSPAIMSASLGERVTMTCTASSSVSSSFLHWYQQKPGSSPQLWIYSTSNLASGVPARFSGSGSGTSYSLTISSMEAEDAATYYCHQYHHSPKIYTFGGGTKLEIK")
"0.829 ratio to WT"
